Target: Calcium sensing receptor (hCaSR) (Homo sapiens, UniProt P41180)
Sequence (P41180 20-1078): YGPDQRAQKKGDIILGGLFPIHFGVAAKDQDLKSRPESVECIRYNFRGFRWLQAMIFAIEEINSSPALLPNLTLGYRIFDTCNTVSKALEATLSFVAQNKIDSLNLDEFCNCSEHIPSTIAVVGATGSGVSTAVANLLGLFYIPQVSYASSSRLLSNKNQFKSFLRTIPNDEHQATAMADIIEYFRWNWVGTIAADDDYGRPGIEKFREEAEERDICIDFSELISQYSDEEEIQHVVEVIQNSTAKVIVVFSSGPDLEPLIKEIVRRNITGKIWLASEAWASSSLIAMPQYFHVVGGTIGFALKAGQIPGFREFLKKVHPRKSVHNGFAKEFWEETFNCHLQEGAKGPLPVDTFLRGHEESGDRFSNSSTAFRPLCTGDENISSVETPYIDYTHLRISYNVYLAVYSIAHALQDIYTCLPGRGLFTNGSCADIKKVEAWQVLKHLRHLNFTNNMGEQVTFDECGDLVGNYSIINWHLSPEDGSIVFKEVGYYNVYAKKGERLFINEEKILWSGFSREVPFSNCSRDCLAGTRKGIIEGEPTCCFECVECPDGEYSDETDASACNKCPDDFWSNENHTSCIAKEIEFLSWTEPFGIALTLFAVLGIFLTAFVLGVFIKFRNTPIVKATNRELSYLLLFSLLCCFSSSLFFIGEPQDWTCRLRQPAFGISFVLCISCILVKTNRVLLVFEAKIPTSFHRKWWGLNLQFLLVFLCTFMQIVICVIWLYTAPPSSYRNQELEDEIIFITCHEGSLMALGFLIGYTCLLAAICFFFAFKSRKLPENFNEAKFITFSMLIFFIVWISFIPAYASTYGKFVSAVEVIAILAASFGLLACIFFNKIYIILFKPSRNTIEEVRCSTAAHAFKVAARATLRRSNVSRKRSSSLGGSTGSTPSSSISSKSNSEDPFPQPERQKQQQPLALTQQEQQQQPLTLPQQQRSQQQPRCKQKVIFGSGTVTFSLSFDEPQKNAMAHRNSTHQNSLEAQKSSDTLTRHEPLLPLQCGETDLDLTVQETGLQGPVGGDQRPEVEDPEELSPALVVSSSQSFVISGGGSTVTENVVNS
Test: In-vitro assay of calcimimetics through modulation of calcium sensing receptor (intracellular calcium increase, FLIPR)
Conditions: stably transfected HEK293 cells expressing hCaSR; Fluo4NW dye; 0.3 mM CaCl2; 8-point assay; read-out: EC50 in range
Structures can show the parent of a compound that is named as a salt.

Compound: COc1cc([C@@H](C)NC(C)c2cc(-c3ccc(C(F)(F)F)cc3)c3ccccc3c2)ccc1F (mixture of isomers) [Example 11, hydrochloride]
EC50: < 20 nM
//
Compound: COc1cccc([C@@H](C)NC(C)c2cc(-c3ccc(OC(F)F)cc3)c3ccccc3c2)c1 (stereo partly shown) [Example 21, hydrochloride]
EC50: < 20 nM
//
Compound: COc1cc([C@@H](C)NCc2cc(-c3ccc(C)c(C(=O)O)c3)c3ccccc3c2)ccc1F [Example 93, hydrochloride]
EC50: 50 to 400 nM
//
Compound: CCC(N[C@H](C)c1cccc(OC)c1)c1cc(-c2ccc(F)c(CCC(=O)O)c2)c2ccccc2c1 (stereo partly shown) [Example 140, hydrochloride]
EC50: 50 to 400 nM
//
Compound: CCCOc1cccc([C@@H](C)NCc2cc(-c3ccc(C)c(C(=O)O)c3)c3ccccc3c2)c1 [Example 92, hydrochloride]
EC50: 50 to 400 nM
//
Compound: COc1cccc([C@@H](C)NCc2cc(-c3cccc(C(=O)O)c3F)c3ccccc3c2)c1 [Example 103, hydrochloride]
EC50: 20 to 50 nM
//
Compound: COc1cccc([C@@H](C)NCCCc2cc(-c3ccc(C(F)(F)F)cc3)c3ccccc3c2)c1 [Example 5, hydrochloride]
EC50: 20 to 50 nM
//
Compound: COc1cccc([C@@H](C)NC(C)c2cc(-c3cccc(C(=O)O)c3C)c3ccccc3c2)c1 (stereo partly shown) [Example 116, hydrochloride]
EC50: 20 to 50 nM
//
Compound: COc1cccc([C@@H](C)NC(C)c2cc(-c3ccc(C(=O)O)c(C(F)(F)F)c3)c3ccccc3c2)c1 (stereo partly shown) [Example 124, hydrochloride]
EC50: 20 to 50 nM
//
Compound: COc1cccc([C@@H](C)NCc2cc(-c3ccc(F)c(C(=O)O)c3)c3ccccc3c2)c1 [Example 97, hydrochloride]
EC50: < 20 nM
//
Compound: COc1cccc([C@@H](C)NC(C)c2cc(-c3ccc(C)c(CCC(=O)O)c3)c3ccccc3c2)c1 (stereo partly shown) [Example 137, hydrochloride]
EC50: < 20 nM
//
Compound: COc1cccc([C@@H](C)NCc2cc(-c3ccc(OC)c(C(=O)O)c3)c3ccccc3c2)c1 [Example 104, hydrochloride]
EC50: 50 to 400 nM
//
Compound: COc1cc([C@@H](C)NCc2cc(-c3cccc(C(F)(F)F)c3)c3ccccc3c2)ccc1F [Example 4, hydrochloride]
EC50: 20 to 50 nM

---

Biological target: Calcium sensing receptor (hCaSR) (Homo sapiens, UniProt P41180)
Sequence (P41180 20-1078): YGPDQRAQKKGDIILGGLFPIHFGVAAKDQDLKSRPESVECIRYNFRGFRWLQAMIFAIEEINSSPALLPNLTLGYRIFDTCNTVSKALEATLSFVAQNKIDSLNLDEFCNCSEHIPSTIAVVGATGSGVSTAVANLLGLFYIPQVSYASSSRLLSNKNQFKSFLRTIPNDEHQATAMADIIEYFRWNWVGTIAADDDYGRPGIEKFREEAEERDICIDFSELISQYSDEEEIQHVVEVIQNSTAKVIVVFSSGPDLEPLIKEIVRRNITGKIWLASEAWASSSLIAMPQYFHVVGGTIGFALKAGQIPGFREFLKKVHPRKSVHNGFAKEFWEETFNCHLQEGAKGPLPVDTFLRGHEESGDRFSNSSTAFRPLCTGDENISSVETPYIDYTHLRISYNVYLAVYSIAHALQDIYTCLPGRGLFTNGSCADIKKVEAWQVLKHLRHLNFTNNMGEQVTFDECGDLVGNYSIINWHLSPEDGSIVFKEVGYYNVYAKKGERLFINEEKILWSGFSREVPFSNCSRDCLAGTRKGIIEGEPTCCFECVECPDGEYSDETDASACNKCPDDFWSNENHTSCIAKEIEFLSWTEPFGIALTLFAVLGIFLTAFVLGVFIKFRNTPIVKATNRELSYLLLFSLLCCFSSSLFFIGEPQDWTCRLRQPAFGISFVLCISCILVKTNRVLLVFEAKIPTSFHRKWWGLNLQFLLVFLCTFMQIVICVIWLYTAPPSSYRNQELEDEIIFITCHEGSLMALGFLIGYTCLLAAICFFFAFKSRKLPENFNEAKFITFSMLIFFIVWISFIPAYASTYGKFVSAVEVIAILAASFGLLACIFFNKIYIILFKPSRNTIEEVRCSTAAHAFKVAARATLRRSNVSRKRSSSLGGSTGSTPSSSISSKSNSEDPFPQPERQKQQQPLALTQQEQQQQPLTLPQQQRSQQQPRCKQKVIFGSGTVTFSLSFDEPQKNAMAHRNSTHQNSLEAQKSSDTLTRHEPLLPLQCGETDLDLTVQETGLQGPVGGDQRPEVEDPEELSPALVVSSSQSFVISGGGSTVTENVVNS
Assay: In-vitro assay of calcimimetics through modulation of calcium sensing receptor (intracellular calcium increase, FLIPR)
Details: stably transfected HEK293 cells expressing hCaSR; Fluo4NW dye; 0.3 mM CaCl2; 8-point assay; read-out: EC50 in range
Structures can show the parent of a compound that is named as a salt.

Molecule: COc1cccc([C@@H](C)NC(C)c2cc(-c3ccc(C(=O)O)c(C)c3)c3ccccc3c2)c1 (some centres unmarked) [Example 130, hydrochloride]
EC50: 50 to 400 nM
--
Molecule: COc1cccc([C@@H](C)NC(C)c2cc(-c3ccc(C(C)(C)C(=O)O)cc3)c3ccccc3c2)c1 (some centres unmarked) [Example 138, hydrochloride]
EC50: 50 to 400 nM
--
Molecule: COc1cccc([C@@H](C)NCc2cc(-c3cccc(C(C)(C)C(=O)O)c3)c3ccccc3c2)c1 [Example 112, hydrochloride]
EC50: 50 to 400 nM
--
Molecule: COc1cccc([C@@H](C)NC(C)c2cc(-c3ccc(C(=O)O)c(F)c3)c3ccccc3c2)c1 (some centres unmarked) [Example 132, hydrochloride]
EC50: 50 to 400 nM
--
Molecule: CC(N[C@H](C)c1cccc(Cl)c1)c1cc(-c2ccc(F)c(CCC(=O)O)c2)c2ccccc2c1 (some centres unmarked) [Example 144, hydrochloride]
EC50: 20 to 50 nM
--
Molecule: COc1cccc([C@@H](C)NCc2cc(-c3ccc(C(C)(C)C(=O)O)cc3)c3ccccc3c2)c1 [Example 111, hydrochloride]
EC50: 50 to 400 nM
--
Molecule: CCC(N[C@H](C)c1cccc(OC)c1)c1cc(-c2ccc(C)c(C(=O)O)c2)c2ccccc2c1 (some centres unmarked) [Example 149, hydrochloride]
EC50: 50 to 400 nM
--
Molecule: CCOc1cccc([C@@H](C)NCc2cc(-c3ccc(F)c(C(=O)O)c3)c3ccccc3c2)c1 [Example 98, hydrochloride]
EC50: < 20 nM
--
Molecule: CC(N[C@H](C)c1cccc(Cl)c1)c1cc(-c2ccc(C(F)(F)F)c(CCC(=O)O)c2)c2ccccc2c1 (some centres unmarked) [Example 146, hydrochloride]
EC50: 50 to 400 nM
--
Molecule: COc1cc(F)cc(C(C)NC(C)c2cc(-c3ccc(C(F)(F)F)cc3)c3ccccc3c2)c1 (single isomer, unassigned) [Example 163b, hydrochloride]
EC50: 20 to 50 nM
--
Molecule: COc1cccc([C@@H](C)NC(C)c2cc(-c3ccc(C(=O)O)cc3F)c3ccccc3c2)c1 (some centres unmarked) [Example 120, hydrochloride]
EC50: < 20 nM
--
Molecule: CCOc1cccc([C@@H](C)NC(C)c2cc(-c3ccc(C)c(CCC(=O)OC(C)C)c3)c3ccccc3c2)c1 (some centres unmarked) [Example 154, hydrochloride]
EC50: 50 to 400 nM
--
Molecule: CCOc1cccc([C@@H](C)NC(C)c2cc(-c3ccc(C(F)(F)F)cc3)c3ccccc3c2)c1 (some centres unmarked) [Example 12, hydrochloride]
EC50: < 20 nM
--
Molecule: COc1cccc([C@@H](C)NC(C)c2cc(-c3cc(F)cc(OC(C)(C)C(=O)O)c3)c3ccccc3c2)c1 (some centres unmarked) [Example 151, hydrochloride]
EC50: 50 to 400 nM
--
Molecule: COc1cccc([C@@H](C)NC(C)c2cc(-c3ccc(C(F)(F)F)c(CCC(=O)O)c3)c3ccccc3c2)c1 (some centres unmarked) [Example 145, hydrochloride]
EC50: 50 to 400 nM
--
Molecule: CCOc1cccc([C@@H](C)NC(C)c2cc(-c3ccc(F)c(CCC(=O)O)c3)c3ccccc3c2)c1 (some centres unmarked) [Example 142, hydrochloride]
EC50: < 20 nM
--
Molecule: CC(N[C@H](C)c1cccc2ccccc12)c1cc(-c2ccc(C(F)(F)F)cc2)c2ccccc2c1 (single isomer, unassigned) [Example 9b, hydrochloride]
EC50: < 20 nM
--
Molecule: CC(N[C@H](C)c1cccc(Cl)c1)c1cc(-c2cc(F)cc(CCC(=O)O)c2)c2ccccc2c1 (mixture of isomers) [Example 156, hydrochloride]
EC50: 20 to 50 nM
--
Molecule: CCC(N[C@H](C)c1cccc(OC)c1)c1cc(-c2cc(F)cc(CCC(=O)O)c2)c2ccccc2c1 (some centres unmarked) [Example 148, hydrochloride]
EC50: 50 to 400 nM
--
Molecule: COc1cccc([C@@H](C)NC(C)c2cc(-c3ccc(OC)c(CCC(=O)O)c3)c3ccccc3c2)c1 (some centres unmarked) [Example 131, hydrochloride]
EC50: 20 to 50 nM
